Target: UniProt:Q12809
Sequence (Q12809 whole entry): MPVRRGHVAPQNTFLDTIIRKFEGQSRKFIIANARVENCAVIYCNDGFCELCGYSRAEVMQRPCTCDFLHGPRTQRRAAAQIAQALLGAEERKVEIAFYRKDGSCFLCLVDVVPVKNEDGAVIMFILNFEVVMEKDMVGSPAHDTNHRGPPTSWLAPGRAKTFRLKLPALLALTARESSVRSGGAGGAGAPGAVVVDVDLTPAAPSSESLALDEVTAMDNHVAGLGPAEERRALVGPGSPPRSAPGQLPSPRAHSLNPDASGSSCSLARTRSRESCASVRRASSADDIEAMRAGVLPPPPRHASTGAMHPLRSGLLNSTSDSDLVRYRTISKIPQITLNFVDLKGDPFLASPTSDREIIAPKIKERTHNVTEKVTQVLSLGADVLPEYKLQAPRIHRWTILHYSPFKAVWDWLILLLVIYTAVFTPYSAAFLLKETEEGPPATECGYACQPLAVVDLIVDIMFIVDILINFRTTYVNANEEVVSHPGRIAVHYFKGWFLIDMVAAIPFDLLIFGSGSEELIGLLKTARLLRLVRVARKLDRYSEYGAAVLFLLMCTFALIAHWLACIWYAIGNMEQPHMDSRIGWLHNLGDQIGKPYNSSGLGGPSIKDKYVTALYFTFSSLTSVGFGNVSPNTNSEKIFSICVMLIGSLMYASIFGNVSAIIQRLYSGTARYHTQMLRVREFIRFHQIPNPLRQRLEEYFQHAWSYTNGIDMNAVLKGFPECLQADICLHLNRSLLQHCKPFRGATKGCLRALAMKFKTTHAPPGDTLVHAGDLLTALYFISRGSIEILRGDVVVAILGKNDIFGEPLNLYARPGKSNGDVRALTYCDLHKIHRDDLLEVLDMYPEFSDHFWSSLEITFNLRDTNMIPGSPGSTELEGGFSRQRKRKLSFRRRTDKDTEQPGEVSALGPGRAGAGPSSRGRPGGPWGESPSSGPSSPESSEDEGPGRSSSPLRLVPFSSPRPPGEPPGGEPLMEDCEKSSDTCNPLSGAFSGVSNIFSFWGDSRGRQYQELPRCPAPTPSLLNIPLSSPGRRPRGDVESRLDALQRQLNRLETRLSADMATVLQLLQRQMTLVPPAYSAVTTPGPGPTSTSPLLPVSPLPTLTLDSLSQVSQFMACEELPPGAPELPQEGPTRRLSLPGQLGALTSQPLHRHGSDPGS
readout-name: Ki (µM)
The answer is to be given in µM; state only the numeric part.

Item C[C@@H]1CN(c2c(F)c(N)c3c(=O)c(C(=O)O)cn(C4CC4)c3c2F)C[C@H](C)N1 ; assay system UniProt:Q12809; Ki reported as 38.6

----------
Molecular target: UniProt P21728
Sequence (P21728 whole entry): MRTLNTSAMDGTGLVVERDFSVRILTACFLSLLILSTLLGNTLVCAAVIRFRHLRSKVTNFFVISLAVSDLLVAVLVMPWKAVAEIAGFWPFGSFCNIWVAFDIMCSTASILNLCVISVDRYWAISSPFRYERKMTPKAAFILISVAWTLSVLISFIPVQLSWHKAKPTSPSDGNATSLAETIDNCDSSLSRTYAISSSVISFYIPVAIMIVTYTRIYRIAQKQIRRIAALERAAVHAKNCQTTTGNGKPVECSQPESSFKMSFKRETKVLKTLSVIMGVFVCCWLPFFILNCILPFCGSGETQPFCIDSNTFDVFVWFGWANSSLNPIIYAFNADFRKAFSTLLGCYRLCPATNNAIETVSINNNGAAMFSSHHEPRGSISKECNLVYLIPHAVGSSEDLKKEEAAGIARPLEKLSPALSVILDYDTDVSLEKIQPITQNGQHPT
Test: DRUGMATRIX: Dopamine D1 radioligand binding (ligand: [3H] SCH-23390)
Format: cell membranes, CHO, Membrane
Conditions: Not Active = under 50% inhibition at 10 µM; read-out: Ki
readout-name: Ki (µM)
The answer is to be given in µM; state only the numeric part.

compound	Ki [µM]
CSc1ccc(/C=C2/C(C)=C(CC(=O)O)c3cc(F)ccc32)cc1 [SULINDAC SULFIDE]	13.9

In plain terms, CN(C)CCCN1c2ccccc2Sc2ccccc21 [PROMAZINE] has a documented Ki of 1.23

In plain terms, Cc1ccc(-c2cc(C(F)(F)F)nn2-c2ccc(S(N)(=O)=O)cc2)cc1 [CELECOXIB] has a documented Ki of 14

In plain terms, O=C(CCCN1CC=C(n2c(=O)[nH]c3ccccc32)CC1)c1ccc(F)cc1 [DROPERIDOL] has a documented Ki of 0.546
